Value source: patent US20060252697A1

Target: T1, rat growth hormone binding protein (rGHBP) (rat, UniProt P16310 19-265)
T1 construct: extracellular domain; also called rat GHBP; soluble rGHBP
T1 sequence (looked up): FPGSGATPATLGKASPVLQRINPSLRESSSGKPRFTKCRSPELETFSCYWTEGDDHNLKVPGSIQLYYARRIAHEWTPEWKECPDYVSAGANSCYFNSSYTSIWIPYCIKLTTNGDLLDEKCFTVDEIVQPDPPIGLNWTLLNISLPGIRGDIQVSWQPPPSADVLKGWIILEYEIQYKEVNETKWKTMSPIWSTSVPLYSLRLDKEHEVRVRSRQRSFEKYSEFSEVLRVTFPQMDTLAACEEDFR
Assay: BIAcore, bPeptide binding to rGHBP, appKD 2
Where no end group is shown, it is not given here.
endpoint-name: pKd
Keep in mind that pKd stands for -log10 of concentration in molar terms.

Identify measured pKd associated with DYKDLCQSWQVTWPGWLAGWCA (cysteine pairing not given here; also: biotinylated in bP form, position not given here, H5 mutant from the secondary library (Y9 to W, L5 to W, G6 to E), synthetic) [peptide #418]
6.17

Identify measured pKd associated with DYKDLCQSLGVTYPGWLAGWCA (cysteine pairing not given here; also: biotinylated in some formats, position not given here, also called H5 phage) [GHBP-H5 peptide (H5WT)]
5.46

# ---- query binder ----
Identify measured pKd associated with DYKDLCQRLGVGWPGWLSGWCA (cysteine pairing not given here; also: biotinylated in bP form, position not given here, H5 mutant from the secondary library, synthetic) [peptide #447]
5.54
